Target: T1, PilO (P. aeruginosa PAO1, UniProt G3XD51)
T1 construct: source: E. coli, purified (Ni-NTA or Strep-Tactin)
T1 sequence: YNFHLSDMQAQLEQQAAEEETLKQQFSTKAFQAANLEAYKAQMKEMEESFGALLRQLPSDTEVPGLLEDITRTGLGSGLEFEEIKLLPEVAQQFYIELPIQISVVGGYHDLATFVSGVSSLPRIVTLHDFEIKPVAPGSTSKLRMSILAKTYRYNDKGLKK
Test: SPR
Conditions: both partners purified
Measure: Kd (µM)
One number for each entry, in µM.

Exercise: Give the measured Kd for RlpA-SPOR (domain or fragment, P. aeruginosa PAO1, UniProt Q9X6V6 264-342, looked up) ADGLYLQVGAFANPDAAELLKAKLSGVTAAPVFISSVVRNQQILHRVRLGPIGSADEVSRTQDSIRVANLGQPTLVRPD
Solution: 5.76
